Reported Kd values for a set of binders
- Assayed System: Recombinant human his-tagged IGF R extracellular domain protein (human) (UniProt P08069)
- Method: SPR, Ab captured via anti-huIgG Fc, pH 7.4
Your answer should be a plain number; it is taken to be in nM.

Some binders with recorded Kd:
VRDN-02057 (antibody, V domains shown) VH: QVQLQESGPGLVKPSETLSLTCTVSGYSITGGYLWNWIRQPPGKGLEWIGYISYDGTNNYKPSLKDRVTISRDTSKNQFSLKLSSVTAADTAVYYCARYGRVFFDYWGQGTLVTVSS VL: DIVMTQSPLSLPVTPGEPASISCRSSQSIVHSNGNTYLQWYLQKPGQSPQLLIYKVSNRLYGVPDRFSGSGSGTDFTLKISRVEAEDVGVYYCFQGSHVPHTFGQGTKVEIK    0.72
VRDN-02013 (antibody, V domains shown) VH: QVQLQESGPGLVKPSETLSLTCTVSGYSITGGYLWNWIRQPPGKGLEWIGYHSYDGTNNYKPSLKDRVTISRDTSKNQFSLKLSSVTAADTAVYYCARYGRVFFDYWGQGTLVTVSS VL: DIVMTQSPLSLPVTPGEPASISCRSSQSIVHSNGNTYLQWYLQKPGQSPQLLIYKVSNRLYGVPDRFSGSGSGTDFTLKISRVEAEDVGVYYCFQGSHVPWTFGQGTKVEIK    0.674
VRDN-02064 (antibody, V domains shown) VH: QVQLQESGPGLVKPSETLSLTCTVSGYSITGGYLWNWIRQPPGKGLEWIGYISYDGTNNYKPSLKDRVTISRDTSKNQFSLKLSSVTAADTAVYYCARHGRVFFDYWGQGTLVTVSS VL: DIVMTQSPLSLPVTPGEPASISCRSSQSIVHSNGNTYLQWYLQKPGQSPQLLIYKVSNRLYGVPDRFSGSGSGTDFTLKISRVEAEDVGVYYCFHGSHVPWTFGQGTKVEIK    0.235
VRDN-02051 (antibody, V domains shown) VH: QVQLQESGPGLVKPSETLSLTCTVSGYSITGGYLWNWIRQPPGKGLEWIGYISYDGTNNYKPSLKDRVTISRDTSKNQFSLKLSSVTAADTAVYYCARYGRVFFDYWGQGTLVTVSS VL: DIVMTQSPLSLPVTPGEPASISCRSSQSIVHSNGNTYLQWYLQKPGQSPQLLIYKVSNRLYGVPDRFSGSGSGTDFTLKISRVEAEDVGVYYCHQGSHVPWTFGQGTKVEIK    1.03

API: the following record is the query input.
So, VRDN-02001 (antibody, V domains shown) VH: QVQLQESGPGLVKPSETLSLTCTVSHYSITGGYLWNWIRQPPGKGLEWIGYISYDGTNNYKPSLKDRVTISRDTSKNQFSLKLSSVTAADTAVYYCARYGRVFFDYWGQGTLVTVSS VL: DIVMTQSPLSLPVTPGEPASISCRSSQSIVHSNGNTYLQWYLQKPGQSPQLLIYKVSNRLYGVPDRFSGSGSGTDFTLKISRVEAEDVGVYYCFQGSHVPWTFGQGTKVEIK ? Its Kd was 0.495
